system: COLO 205 colon; experiment: NCI tumour cell line growth inhibition, 48 h
quantityKind: GI50

| testSmiles | reading |
| --- | --- |
| Cc1nc(N(C)C)nc(-c2cccc(-c3ccn(CCN(C)C)n3)c2)c1C | > 20 µM |
| c1ccc(Oc2cnc3ccccc3n2)cc1 | > 100 µM |
| Nc1c(S(=O)(=O)O)cc2c(c1Cl)C(=O)c1ccccc1C2=O | > 100 µM |

---

test system: BT-549 breast; assay: NCI tumour cell line growth inhibition, 48 h
quantityKind: TGI

| compound | quantityKind | reading |
| --- | --- | --- |
| Nc1nc(=O)n(C2CC(O)C(CO)O2)c2nc(-c3ccc(-c4ccccc4)cc3)cnc12 (stereo not drawn) | TGI | > 100 µM |
| O=C(Nc1ccccn1)c1cc2c(cc1Cl)Sc1nccn1S2(=O)=O | TGI | > 100 µM |
| CC(NC(=O)C1(N)CCCC1)C(=O)O (stereo not drawn) | TGI | > 100 µM |

---

test system: MDA-MB-435
Outcome codes: 1.0 (active), 0.0 (inactive)

| compound | answerLabel |
| --- | --- |
| N=C(N)c1ccc(-c2ccc(-c3ccccc3)o2)o1 | 0.0 |
| NC(CSC(c1ccccc1)(c1ccccc1)c1ccc(Br)cc1)C(=O)O (stereo unspecified) | 1.0 |
| COc1cc(-c2nc3cc(Cl)c(Cl)cc3[nH]2)ccc1OCC(=O)N=Nc1c(O)[nH]c2ccccc12 | 1.0 |
| Cc1cc(=O)[nH]c2c1C(=O)C(=O)C=C2 | 0.0 |
| CC/C(=C(/c1ccc(Cl)cc1)c1ccc(OCCCN(C)C)cc1)c1ccc(OC)cc1 | 0.0 |
| COc1ccc(-n2cc(-c3ccc(F)cc3)[nH]c2=O)cc1OC | 0.0 |

---

TGI listing for selected compounds.
system: MCF7 breast; experiment: NCI tumour cell line growth inhibition, 48 h
quantityKind: TGI

| compound | reading |
| --- | --- |
| CCOc1ccnc2c(OC)c(C)c3nc4ccccc4nc3c12 | > 100 µM |
| ClC1(Cl)C2CCOC21n1cnc2ccccc21 (stereo not drawn) | > 100 µM |
| O=C(Nc1ccccn1)c1cc2c(cc1Cl)Sc1nccn1S2(=O)=O | > 100 µM |

---

test system: A498 renal; assay: NCI tumour cell line growth inhibition, 48 h
TGI reference

| compound | TGI |
| --- | --- |
| COc1ccccc1N1C(=O)/C(=C\c2ccccc2)SC1c1cc(OC)c(OC)c(OC)c1 (centres undefined) | > 100 µM |
| COc1ccc(S(=O)(=O)Nc2c(/C=C\c3cc(OC)c(OC)c(OC)c3)ccc(OC)c2O)cc1OC | 0.291 µM |
| COC(=O)c1cccc(COc2ccc([N+](=O)[O-])cc2Cl)c1 | > 100 µM |
| OC(c1cc2c(Cl)cc(Cl)cc2c2cc(C(F)(F)F)ccc12)C1CCCCN1 (centres undefined) | 2.9 µM |
| O=C(Nc1ccc(-n2cc(-c3ccncc3)c(-c3ccc(Cl)c(O)c3)n2)cc1)c1ccc(Cl)c(C(F)(F)F)c1 | 34.9 µM |
| O=c1c2ccc(Br)cc2nc(-c2ccccc2)n1NC1OC(CO)C(O)C(O)C1O (centres undefined) | > 100 µM |
| COc1ccc(-c2nn(C(=O)c3cc(OC)c(OC)c(OC)c3)c3cc(N)ccc23)cc1 | < 0.0171 µM |
| O=C1COCCN1c1ccc(NCc2cn(Cc3ccc(F)cc3)c3ccccc23)cc1 | 0.0821 µM |
| COc1cc(C2C(C(=O)Nc3ccccc3C)=C(C)NC(C)=C2C(=O)Nc2ccccc2C)ccc1O | > 100 µM |
| CSc1nnc2n1-c1ccccc1SCC2 | > 100 µM |
| CSc1cc(Cl)c(C)cc1S(=O)(=O)NC(=O)NNc1cnc2ccccc2n1 | > 100 µM |
| CC(=O)SC(C[N+](=O)[O-])c1ccccc1 (centres undefined) | 20.7 µM |
| O=C1N(c2ccccc2)N=C2c3ccncc3C3=NN(c4ccccc4)C(=O)C123 (centres undefined) | > 100 µM |
| Cc1ccc(S(=O)(=O)N/N=C2/C3CC4CCC2C4C3)cc1 (centres undefined) | > 100 µM |

---

test system: SW-620 colon; experiment: NCI tumour cell line growth inhibition, 48 h

| compound | TGI |
| --- | --- |
| Nc1[nH]nc2c1Cc1c(n(Cc3ccc(Cl)cc3)c3ccccc13)C(=O)N2 | > 100 µM |
| COc1ccc(/C=C/C(=O)N[C@@H]2C(=O)N3[C@@H]2SC(C)(C)[C@@H]3C(=O)O)cc1OC | > 100 µM |
| COC1=C2C[C@](OC)(C#CC=CC#CC2O)CC1(C)C (stereo not given in full) | > 100 µM |
| COC(=O)c1cccc(COc2ccc([N+](=O)[O-])cc2Cl)c1 | > 100 µM |
| O=P1(NCCCl)OCCC(OO)N1CCCl (stereo not given) | 30.5 µM |
| COc1ccc(-n2cc(-c3ccc(F)cc3)[nH]c2=O)cc1OC | > 100 µM |
| C/C(=N\Nc1nc2ccccc2[nH]1)c1ccc2ccccc2n1 | 14.6 µM |
| Cc1csc(CP(=O)(OC(C)C)OC(C)C)n1 | > 100 µM |
| CC(=O)Oc1ccc(C2SCc3nc4ccccc4n32)cc1 (stereo not given) | > 100 µM |
| O=C1C2Cc3ccccc3CN2C(=O)N1CCN1CCOCC1 (stereo not given) | > 100 µM |
| FC(F)(F)c1ccc(N=NN2CCCC2)cc1 | > 100 µM |
| Cc1c(OCc2cccc3ccccc23)ccc2c(=O)cc(S)oc12 | > 100 µM |
| O=CN/C=C\c1cc(O)ccc1O | 25.6 µM |
| COc1ccc(/C=C2\NC(=S)N(CN3CCOCC3)C2=O)cc1 | > 100 µM |
| COc1cc(Nc2nccc(-c3cnn4ncccc34)n2)cc(OC)c1 | 4.78 µM |
| Cc1cnc2n(c1=O)Cc1ccccc1CO2 | 49 µM |
| COc1cc(-c2nc3cc(Cl)c(Cl)cc3[nH]2)ccc1OCC(=O)N=Nc1c(O)[nH]c2ccccc12 | 1.43 µM |
| CC(C)N=C(NC#N)NS(=O)(=O)c1cnccc1NC1CCCCCCC1 | > 100 µM |
| COc1ccc(/C=N/C2=C(C#N)C(c3ccccc3)c3ccc4ccccc4c3O2)cc1 (stereo not given) | > 100 µM |
| O=C1CN2CCN(CC2)CC(=O)Nc2ccc(cc2)S(=O)(=O)c2ccc(cc2)NC(=O)CN2CCN(CC2)CC(=O)Nc2ccc(cc2)S(=O)(=O)c2ccc(cc2)N1 | 50.7 µM |
| O=C(Nc1ccc(-n2cc(-c3ccncc3)c(-c3ccc(Cl)c(O)c3)n2)cc1)c1ccc(Cl)c(C(F)(F)F)c1 | 3.14 µM |
| CCOC(=O)C(/C=N/C(N)=S)=C(/O)c1ccccc1 | > 100 µM |
| O=CC1C(=O)Nc2nc3ccccc3n2C1c1ccccc1 (stereo not given) | 43.3 µM |
| COc1ccc(-c2nc3ccccc3c(=O)[nH]2)cc1OC | > 100 µM |
| CSc1c(C#N)c(=O)n(N)c2n[nH]c(C)c12 | > 100 µM |

---

system: OVCAR-4 ovarian; experiment: NCI tumour cell line growth inhibition, 48 h

| testSmiles | GI50 |
| --- | --- |
| Cc1nc(N(C)C)nc(-c2cccc(-c3ccn(CCN(C)C)n3)c2)c1C | > 20 µM |
| O=C(Nc1ccc(-n2cc(-c3ccncc3)c(-c3ccc(Cl)c(O)c3)n2)cc1)c1ccc(Cl)c(C(F)(F)F)c1 | 3.66 µM |
| Cc1cc(=O)[nH]c2c1C(=O)C(=O)C=C2 | 25.6 µM |
| CCCCCCOc1ccc(/C=N/Nc2cc(C)nc3ccc(Br)cc23)cc1 | 1.81 µM |
| COc1cccc(-c2nn(C)c3sc(C(=O)NCCN4CCN(c5ccccc5F)CC4)cc23)c1 | 19.1 µM |
| C/C(=N\O)c1ccc(Nc2cc(-c3ccccc3)nc3c(O)cccc23)cc1 | 25.4 µM |
| N=C(N)c1ccc(-c2ccc(-c3ccccc3)o2)o1 | 3.48 µM |

---

system: SNB-19 CNS; experiment: NCI tumour cell line growth inhibition, 48 h; in the data active means GI50 below about 0.43 µM; inactive means the rest
Labels: active, inactive

| compound | subjectOfTest | answerLabel |
| --- | --- | --- |
| Cc1cc(=O)[nH]c2c1C(=O)C(=O)C=C2 | SNB-19 CNS | inactive |
| COc1ccc2nc3c(cc2c1)C(=O)CC(C(F)(F)F)C3 (stereo not given) | SNB-19 CNS | inactive |
| COc1ccc2c(c1)cn1c3ccc(OC)cc3[nH]c(=O)c21 | SNB-19 CNS | active |
| COc1cc(/C=C/C(=O)c2ccc(SC)cc2)cc(OC)c1OC | SNB-19 CNS | inactive |
| O=C1/C=C/[C@@H](O)[C@@H]2C[C@@H](O)C[C@H]2/C=C/CCCCO1 | SNB-19 CNS | inactive |
| O=[N+]([O-])c1ccc(N/N=C\c2ccc(O)cc2O)nc1 | SNB-19 CNS | inactive |
| Nc1ncnc2c1c(-c1ccc(Oc3ccccc3)cc1)nn2C[C@H]1SSC[C@H]1O | SNB-19 CNS | inactive |
| O=c1c(Br)ccc(Br)cc1Br | SNB-19 CNS | inactive |
| C=CCOc1ccc2c(c1)CC[C@@H]1[C@@H]2CC[C@]2(C)C(=O)/C(=N/O)C[C@@H]12 | SNB-19 CNS | inactive |
| c1ccc(Oc2cnc3ccccc3n2)cc1 | SNB-19 CNS | inactive |
